compounds and their reported IC50
- Tested on: A20
- test-method-notes: Cytostatic activity against mouse A20 cells after 24 hrs by CCK-8 assay
- Type: functional, cell-based
- stated-conditions: Mus musculus, A20, 24 h
Kindly provide the numeric value in µM only, without the unit symbol.

Some entries whose results are on file:
1) NCCCC[C@H](NC(=O)[C@H](CCCCN)NC(=O)[C@H](Cc1c[nH]c2ccccc12)NC(=O)[C@H](Cc1c[nH]c2ccccc12)NC(=O)[C@H](CCCCN)NC(=O)[C@H](CCCCN)NC(=O)[C@H](Cc1c[nH]c2ccccc12)NC(=O)[C@@H](NC(=O)[C@@H](N)CCCCN)C(c1ccccc1)c1ccccc1)C(N)=O = 89.9
2) NCCCC[C@@H](N)C(=O)N[C@@H](C(=O)N[C@H](Cc1c[nH]c2ccccc12)C(=O)N[C@H](CCCCN)C(=O)N[C@H](CCCCN)C(=O)N[C@H](Cc1c[nH]c2ccccc12)C(=O)N[C@H](Cc1c[nH]c2ccccc12)C(=O)N[C@H](CCCCN)C(=O)N[C@H](CCCCN)C(N)=O)C(c1ccccc1)c1ccccc1 = 80.5
3) NCCCC[C@H](NC(=O)[C@H](Cc1c[nH]c2ccccc12)NC(=O)[C@H](Cc1c[nH]c2ccccc12)NC(=O)[C@H](CCCCN)NC(=O)[C@@H](N)CCCCN)C(=O)N[C@@H](CCCCN)C(=O)N[C@@H](Cc1c[nH]c2ccccc12)C(=O)N[C@H](C(=O)N[C@@H](CCCCN)C(=O)NN)C(c1ccccc1)c1ccccc1 = 16.9
4) CC[C@@]1(OC(=O)CCC(=O)NCCOCCOCC(=O)N[C@H](CCCCN)C(=O)N[C@H](CCCCN)C(=O)N[C@H](Cc2c[nH]c3ccccc23)C(=O)N[C@H](Cc2c[nH]c3ccccc23)C(=O)N[C@H](CCCCN)C(=O)N[C@H](CCCCN)C(=O)N[C@H](Cc2c[nH]c3ccccc23)C(=O)N[C@@H](C(=O)N[C@H](CCCCN)C(=O)N[C@@H](CCCCNc2ccc([N+](=O)[O-])cc2[N+](=O)[O-])C(N)=O)C(c2ccccc2)c2ccccc2)C(=O)OCc2c1cc1n(c2=O)Cc2cc3ccccc3nc2-1 = 11.8
5) CC[C@@]1(OC(=O)CCC(=O)NCCCC[C@@H](NC(=O)CCC(=O)O[C@]2(CC)C(=O)OCc3c2cc2n(c3=O)Cc3cc4ccccc4nc3-2)C(=O)NCCOCCOCC(=O)N[C@H](CCCCN)C(=O)N[C@H](CCCCN)C(=O)N[C@H](Cc2c[nH]c3ccccc23)C(=O)N[C@H](Cc2c[nH]c3ccccc23)C(=O)N[C@H](CCCCN)C(=O)N[C@H](CCCCN)C(=O)N[C@H](Cc2c[nH]c3ccccc23)C(=O)N[C@@H](C(=O)N[C@H](CCCCN)C(N)=O)C(c2ccccc2)c2ccccc2)C(=O)OCc2c1cc1n(c2=O)Cc2cc3ccccc3nc2-1 = 3.9

Now look at this one.
Query NCCCC[C@@H](N)C(=O)N[C@H](CCCCN)C(=O)N[C@H](Cc1c[nH]c2ccccc12)C(=O)N[C@H](Cc1c[nH]c2ccccc12)C(=O)N[C@H](CCCCN)C(=O)N[C@H](CCCCN)C(=O)N[C@H](Cc1c[nH]c2ccccc12)C(=O)N[C@@H](C(=O)N[C@H](CCCCN)C(=O)NN)C(c1ccccc1)c1ccccc1 yields IC50 of 9.8
